- systemUnderTest: UniProt:Q06187
- Sequence (Q06187 whole entry): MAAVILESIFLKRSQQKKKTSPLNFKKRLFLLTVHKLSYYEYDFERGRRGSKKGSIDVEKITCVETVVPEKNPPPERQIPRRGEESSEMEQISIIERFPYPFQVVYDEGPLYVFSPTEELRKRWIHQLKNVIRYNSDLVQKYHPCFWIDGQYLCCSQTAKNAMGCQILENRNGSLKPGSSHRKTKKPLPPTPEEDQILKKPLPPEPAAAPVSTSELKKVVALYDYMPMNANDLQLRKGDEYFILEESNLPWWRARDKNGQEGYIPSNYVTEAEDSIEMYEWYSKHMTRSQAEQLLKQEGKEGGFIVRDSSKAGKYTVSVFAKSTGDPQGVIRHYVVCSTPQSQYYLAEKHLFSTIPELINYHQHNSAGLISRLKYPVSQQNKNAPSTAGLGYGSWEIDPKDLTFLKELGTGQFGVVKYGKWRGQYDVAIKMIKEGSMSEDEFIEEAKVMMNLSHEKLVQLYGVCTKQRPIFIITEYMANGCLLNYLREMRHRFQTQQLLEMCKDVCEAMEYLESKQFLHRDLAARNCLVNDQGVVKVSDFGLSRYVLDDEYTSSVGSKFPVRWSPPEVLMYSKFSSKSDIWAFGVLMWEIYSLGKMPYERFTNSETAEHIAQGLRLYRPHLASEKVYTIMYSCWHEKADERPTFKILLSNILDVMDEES
pIC50: −log10 of the molar value.
parameterMeasured: pIC50

Provide value of pIC50 for this record tested with UniProt:Q06187: "Cn1cc(-c2cn3nccc3c(OC3CCN(C(=O)/C=C\CCl)CC3)n2)cn1"
> 9.00
